All figures here come from paper PMC10247784.

system-tested: human TAS2R4 (Homo sapiens)
Construct: expressed in transfected cells; host or cells: HEK293T-Gα16gust44
Sequence (Q9NYW5 whole entry): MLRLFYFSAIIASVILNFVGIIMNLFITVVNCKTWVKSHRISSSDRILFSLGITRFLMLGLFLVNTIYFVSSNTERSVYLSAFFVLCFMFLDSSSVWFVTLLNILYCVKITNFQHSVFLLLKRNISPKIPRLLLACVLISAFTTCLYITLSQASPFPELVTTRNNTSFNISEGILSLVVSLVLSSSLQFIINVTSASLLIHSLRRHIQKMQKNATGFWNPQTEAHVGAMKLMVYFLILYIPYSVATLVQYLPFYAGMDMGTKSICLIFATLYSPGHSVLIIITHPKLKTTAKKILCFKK
measurement-description: Calcium imaging assay (FLIPR), HEK293T-Gα16gust44 cells transfected with human TAS2R4; further: test concentration or dose not given here
Assay type: cell-based
condition-label: Time (s) 323.547
Reported RLU, fluorescence trace values for the following compounds.
readout-kind: RLU, fluorescence trace (RLU)

> print(dat)
                                   molecule  reading
1  C[C@H](CCC(=O)O)[C@H]1CC[C@H]2[C@@H]3[C@@H](O)C[C@@H]4C[C@H](O)CC[C@]4(C)[C@H]3CC[C@]12C  135.942
2  C[C@H](CCC(=O)NCCS(=O)(=O)O)[C@H]1CC[C@H]2[C@@H]3[C@H](O)C[C@@H]4C[C@H](O)CC[C@]4(C)[C@H]3C[C@H](O)[C@]12C  170.101
3  C[C@H](CCC(=O)NCCS(=O)(=O)O)[C@H]1CC[C@H]2[C@@H]3CC[C@@H]4C[C@H](O)CC[C@]4(C)[C@H]3CC[C@]12C  111.642
4  C[C@H](CCC(=O)NCC(=O)O)[C@H]1CC[C@H]2[C@@H]3[C@H](O)C[C@@H]4C[C@H](O)CC[C@]4(C)[C@H]3C[C@H](O)[C@]12C  123.872
5  C[C@H](CCC(=O)O)[C@H]1CC[C@H]2[C@@H]3[C@H](O)C[C@@H]4C[C@H](O)CC[C@]4(C)[C@H]3C[C@H](O)[C@]12C  278.662
6  C[C@H](CCC(=O)O)[C@H]1CC[C@H]2[C@@H]3CC[C@@H]4C[C@H](O)CC[C@]4(C)[C@H]3C[C@H](O)[C@]12C  391.589
